ASSAYED_SYSTEM: human serum-derived IgG polyclonal antibody (#I4506; Sigma-Aldrich) (human)
TEST_DESCRIPTION: SPR, lysate, human IgG chip
OUTCOME_MEASURE: koff (s⁻¹)
Reply with just the number (in s⁻¹).

Study these solved cases before continuing.
>>> result("R2-16 (scFv, not shown: small tags and cut ends) scFv: QSVKESGGRLVTPGTPLTLTCTVSGFSLSSYAMGWVRQAPGKGLEYIGIISSSGSTYYASWAKGRFTISKTSTTVDLKITSPTTEDTATYFCARYSGDNGGALNLWGPGTLVTVTSGGGGSGGGGSGGGGSELDLTQTAASVSEPVGGTVTISCQSSQHIRSYLAWYQQKPGQPPKLLISAASTLASGVSSRFKGSGSGTEFTLTISDLECADAATYYCQRYYDIRNYGNGFGGGTEVEITGS")
0.000838
>>> result("R3-23 (scFv, not shown: small tags and cut ends) scFv: QSVKESEGRLVTPGTPLTLTCTVSGFSLSRYAVSWVRQAPGKGLEWIGIIGSGGSTSYATWARGRFTISKTSTTVDLKITSPTTEDTVTYFCGSYYDSHGYAYVSLWGPGTLVTVTSGGGGSGGGGSGGGGSELVLTQTPSPVSGAVGGTVTINCQASQSISTALAWYQQKPGQPPKLLIYSASTLASGVSSRFKGSGSGTGFTLTISDLECADAATYYCQSYYGSSSDNAFGGGTEVVIKRS")
0.000408

Could you now consider this next binder?
-- ask Suppose we examine the binder R3-26 (scFv, not shown: small tags and cut ends) scFv: QEQLVESGGGLVKPGGTLTLTCTVSGIDLSSYAMSWVRQVPGKGLEWIGIIGSGGGTAYANWAKGRFTISKTSSTTVDLKMTSLTTEDTATYFCATDYGIYGYAYGHLWGPGTLVTVTSGGGGSGGGGSGGGGSELVMTQTASPVSAAVGGTVTIKCQASQSISTALAWYQQRPGQPPKLLIYDASTLASGVSSRFKGSGSGTEFTLTISDLECADAATYYCQTYFGSDTDNAFGEGTEVEITGS ; what koff value has been reported?
-- reply 0.000571

Attribution: patent US20180327803A1
